Listed next: entries and their corresponding TGI.
test system: NCI-H460 lung; experiment: NCI tumour cell line growth inhibition, 48 h

1) C=C1CC2[C@H](C)C(=O)CCC2(C)C2=C1C1CCC(C(C)CCC(=C)C(C)C(=O)O)C1(C)CC2=O (some centres undefined) :: > 100 µM
2) O=C1CCC(=O)c2sccc2N1 :: > 100 µM
3) CCCCNC1=C(C(=O)OCC)/C(=N/NC(=O)c2ccccc2O)CO1 :: > 100 µM
4) Cc1cc(Nc2nc(-c3ccncc3)nc3ccccc23)n[nH]1 :: > 100 µM
5) CN(C)/C=C/C=C(/C=N/S(=O)(=O)C(F)(F)F)C1C=CN(S(=O)(=O)C(F)(F)F)C=C1 :: > 100 µM

Qu. Fill in: TGI of COC(=O)C1c2cc3c(c(O)c2C(O)CC1(C)O)C(=O)c1c(O)cc2c(c1C3=O)OC1OC2(C)C(O)C(N(C)C)C1O (centres undefined) is ___
Ans. > 100 µM

Qu. Fill in: TGI of Nc1nc(N)c2c(n1)NC(c1sc(Cl)nc1Cl)CC(c1ccc3c(c1)OCO3)=N2 (centres undefined) is ___
Ans. 18.1 µM

Qu. Fill in: TGI of C/C(=N/O)c1ccc(Nc2cc(-n3ccnc3)c3ccccc3n2)cc1 is ___
Ans. > 100 µM

Qu. Fill in: TGI of COc1ccccc1NC(=S)N/N=C/c1cccc(C)n1 is ___
Ans. > 85.5 µM

Qu. Fill in: TGI of CC(C)C(NC(=O)C(Cc1ccccc1)NC(=O)[C@H]1CCC[C@H]1NC(=O)C(Cc1ccc(OC(C)(C)C)cc1)NC(=O)OC(C)(C)C)C(N)=O (some centres undefined) is ___
Ans. 38.8 µM

Qu. Fill in: TGI of N#Cc1nc(/C=C/c2cccnc2)oc1N is ___
Ans. > 100 µM

Qu. Fill in: TGI of CCCCCCCCCCCCCCCC1(OC)C[N+](C)(C)CCO1 (centres undefined) is ___
Ans. 5.57 µM

Qu. Fill in: TGI of O=C1c2cc([N+](=O)[O-])sc2C(=O)c2c([N+](=O)[O-])csc21 is ___
Ans. 3.5 µM

Qu. Fill in: TGI of NN/C(=N\S(=O)(=O)c1ccc(S(=O)(=O)c2ccccc2)s1)Nc1ccc(Cl)cc1 is ___
Ans. 65.7 µM

Qu. Fill in: TGI of O=C(N/N=C\c1ccc([N+](=O)[O-])s1)c1ccncc1 is ___
Ans. 33.1 µM

Qu. Fill in: TGI of Nc1ccn(C2OC(C(OC3OC(CO)C(O)C(N)C3O)C(O)C(O)C(O)C(O)CO)C(N)C(O)C2O)c(=O)n1 (centres undefined) is ___
Ans. > 100 µM

Qu. Fill in: TGI of Cc1ccc(-c2n[nH]c(=O)c3noc(-c4ccc(C)cc4)c23)cc1 is ___
Ans. 25 µM

Qu. Fill in: TGI of Cc1cc(=O)oc2c(CNC(CC(C)C)C(=O)O)c(O)ccc12 (centres undefined) is ___
Ans. > 100 µM
